# Test system: HT-29
# PROTOCOL_SUMMARY: Cytotoxicity against human HT29 cells after 48 hrs by SRB assay
# Assay type: functional, cell-based
# CONDITION_LABEL: Homo sapiens, HT-29, 48 h

CHEM_SMILES: C/C=C1\NC(=O)[C@H](Cc2ccccc2)NC(=O)[C@@H](C(C)C)NC(=O)[C@@H]([C@H](C)CC)NC(=O)[C@H](NC(=O)[C@H](NC(=O)[C@H](CCCN)NC(=O)[C@H]2CCCN2C(=O)[C@H](NC(=O)[C@@H](NC(=O)[C@@H](NC(=O)[C@H](NC(=O)CCCC(C)C)C(C)C)C(C)C)C(C)C)C(C)C)[C@H](C)CC)[C@H](C)OC(=O)[C@H](C(C)C)NC1=O
GI50: 300 nM

CHEM_SMILES: C/C=C1\NC(=O)[C@H](Cc2ccccc2)NC(=O)[C@@H](C(C)C)NC(=O)[C@@H]([C@H](C)CC)NC(=O)[C@H](NC(=O)[C@H](NC(=O)[C@H](CCCCN)NC(=O)[C@H]2CCCN2C(=O)[C@H](NC(=O)[C@@H](NC(=O)[C@@H](NC(=O)[C@H](NC(=O)CCCC(C)C)C(C)C)[C@@H](C)O)C(C)C)C(C)C)[C@H](C)CC)[C@H](C)OC(=O)[C@H](C(C)C)NC1=O
GI50: 521 nM

CHEM_SMILES: C=C1NC(=O)[C@H](Cc2ccccc2)NC(=O)[C@@H](C(C)C)NC(=O)[C@@H]([C@H](C)CC)NC(=O)[C@H](NC(=O)[C@H](NC(=O)[C@H](CCCN)NC(=O)[C@H]2CCCN2C(=O)[C@H](NC(=O)[C@@H](NC(=O)[C@@H](NC(=O)[C@H](NC(=O)CCCC(C)C)C(C)C)[C@@H](C)O)C(C)C)C(C)C)[C@H](C)CC)[C@H](C)OC(=O)[C@H](C(C)C)NC1=O
GI50: 638 nM

CHEM_SMILES: C/C=C1\NC(=O)[C@H](Cc2ccc(-c3ccccc3)cc2)NC(=O)[C@@H](C(C)C)NC(=O)[C@@H]([C@H](C)CC)NC(=O)[C@H](NC(=O)[C@H](NC(=O)[C@H](CCCN)NC(=O)[C@H]2CCCN2C(=O)[C@H](NC(=O)[C@@H](NC(=O)[C@@H](NC(=O)[C@H](NC(=O)CCCC(C)C)C(C)C)[C@@H](C)O)C(C)C)C(C)C)[C@H](C)CC)[C@H](C)OC(=O)[C@H](C(C)C)NC1=O
GI50: 214 nM

CHEM_SMILES: C/C=C1\NC(=O)[C@H](Cc2ccccc2)NC(=O)[C@@H](C(C)C)NC(=O)[C@@H]([C@H](C)CC)NC(=O)[C@H](NC(=O)[C@H](NC(=O)[C@H](CCCN)NC(=O)[C@H]2CCCN2C(=O)[C@H](NC(=O)[C@@H](NC(=O)[C@@H](NC(=O)[C@H](NC(=O)CCCCC(C)(F)F)C(C)C)[C@@H](C)O)C(C)C)C(C)C)[C@H](C)CC)[C@H](C)OC(=O)[C@H](C(C)C)NC1=O
GI50: 1960 nM

----------
# Test system: HT-29
# PROTOCOL_SUMMARY: Cytotoxicity against human HT29 cells after 48 hrs by SRB assay
# Assay type: functional, cell-based
# CONDITION_LABEL: Homo sapiens, HT-29, 48 h; read-out: LC50 (the source's name)
The recorded CC50 of each item maps onto one of these classes: 0: < 400 nM; 1: ≥ 400 nM and < 900 nM; 2: ≥ 900 nM

COMPOUND: C/C=C1\NC(=O)[C@H](Cc2ccccc2)NC(=O)[C@H](C(C)C)NC(=O)[C@@H]([C@H](C)CC)NC(=O)[C@H](NC(=O)[C@H](NC(=O)[C@H](CCCN)NC(=O)[C@H]2CCCN2C(=O)[C@H](NC(=O)[C@@H](NC(=O)[C@@H](NC(=O)[C@H](NC(=O)CCCC(C)C)C(C)C)[C@@H](C)O)C(C)C)C(C)C)[C@H](C)CC)[C@H](C)OC(=O)[C@H](C(C)C)NC1=O
CLASSIFICATION: 2

COMPOUND: C/C=C1\NC(=O)[C@H](Cc2ccccc2)NC(=O)[C@@H](C(C)C)NC(=O)[C@@H]([C@H](C)CC)NC(=O)[C@H](NC(=O)[C@H](NC(=O)[C@H](CCCN)NC(=O)[C@H]2CCCN2C(=O)[C@H](NC(=O)[C@@H](NC(=O)[C@@H](NC(=O)[C@H](NC(=O)CCCC(C)C)C(C)C)[C@@H](C)O)C(C)C)C(C)C)[C@H](C)CC)[C@H](C)OC(=O)[C@H](C(C)C)NC1=O [KAHALALIDE F]
CLASSIFICATION: 2

COMPOUND: C/C=C1\NC(=O)[C@H](Cc2ccccc2)NC(=O)[C@@H](C(C)C)NC(=O)[C@@H]([C@H](C)CC)NC(=O)[C@H](N)[C@H](C)OC(=O)[C@H](C(C)C)NC1=O
CLASSIFICATION: 2

COMPOUND: C/C=C1\NC(=O)[C@H](Cc2ccccc2)NC(=O)[C@@H](C(C)C)NC(=O)[C@@H]([C@H](C)CC)NC(=O)[C@H](NC(=O)[C@H](NC(=O)[C@H](CCCNC(=O)C[C@](OC)(c2ccccc2)C(F)(F)F)NC(=O)[C@H]2CCCN2C(=O)[C@H](NC(=O)[C@@H](NC(=O)[C@@H](NC(=O)[C@H](NC(=O)CCCC(C)C)C(C)C)[C@@H](C)O)C(C)C)C(C)C)[C@H](C)CC)[C@H](C)OC(=O)[C@H](C(C)C)NC1=O
CLASSIFICATION: 0

COMPOUND: C/C=C1\NC(=O)[C@H](Cc2ccc(I)cc2)NC(=O)[C@@H](C(C)C)NC(=O)[C@@H]([C@H](C)CC)NC(=O)[C@H](NC(=O)[C@H](NC(=O)[C@H](CCCN)NC(=O)[C@H]2CCCN2C(=O)[C@H](NC(=O)[C@@H](NC(=O)[C@@H](NC(=O)[C@H](NC(=O)CC[C@@H](C)CC)C(C)C)[C@@H](C)O)C(C)C)C(C)C)[C@H](C)CC)[C@H](C)OC(=O)[C@H](C(C)C)NC1=O
CLASSIFICATION: 1

COMPOUND: C/C=C1\NC(=O)[C@H](Cc2ccccc2)NC(=O)[C@@H](C(C)C)NC(=O)[C@@H]([C@H](C)CC)NC(=O)[C@H](NC(=O)[C@H](NC(=O)[C@H](CCCNC(=O)C(F)(F)F)NC(=O)[C@H]2CCCN2C(=O)[C@H](NC(=O)[C@@H](NC(=O)[C@@H](NC(=O)[C@H](NC(=O)CC[C@@H](C)CC)C(C)C)[C@@H](C)OC(=O)C(F)(F)F)C(C)C)C(C)C)[C@H](C)CC)[C@H](C)OC(=O)[C@H](C(C)C)NC1=O
CLASSIFICATION: 0

COMPOUND: C/C=C1\NC(=O)[C@H](Cc2ccc(O)cc2)NC(=O)[C@@H](C(C)C)NC(=O)[C@@H]([C@H](C)CC)NC(=O)[C@H](NC(=O)[C@H](NC(=O)[C@H](CCCN)NC(=O)[C@H]2CCCN2C(=O)[C@H](NC(=O)[C@@H](NC(=O)[C@@H](NC(=O)[C@H](NC(=O)CC[C@@H](C)CC)C(C)C)[C@@H](C)O)C(C)C)C(C)C)[C@H](C)CC)[C@H](C)OC(=O)[C@H](C(C)C)NC1=O
CLASSIFICATION: 1

COMPOUND: C/C=C1\NC(=O)[C@H](c2ccccc2)NC(=O)[C@@H](C(C)C)NC(=O)[C@@H]([C@H](C)CC)NC(=O)[C@H](NC(=O)[C@H](NC(=O)[C@H](CCCN)NC(=O)[C@H]2CCCN2C(=O)[C@H](NC(=O)[C@@H](NC(=O)[C@@H](NC(=O)[C@H](NC(=O)CCCC(C)C)C(C)C)[C@@H](C)O)C(C)C)C(C)C)[C@H](C)CC)[C@H](C)OC(=O)[C@H](C(C)C)NC1=O
CLASSIFICATION: 1

COMPOUND: C/C=C1\NC(=O)[C@H](Cc2ccccc2)NC(=O)[C@@H](C(C)C)NC(=O)[C@@H]([C@H](C)CC)NC(=O)[C@H](NC(=O)[C@H](NC(=O)[C@H](CCCN)NC(=O)[C@H]2CCCN2C(=O)[C@H](NC(=O)[C@@H](NC(=O)[C@H](CC(C)C)NC(=O)[C@H](NC(=O)CCCC(C)C)C(C)C)C(C)C)C(C)C)[C@H](C)CC)[C@H](C)OC(=O)[C@H](C(C)C)NC1=O
CLASSIFICATION: 1
